Catalogue of normalized growth values
assay: chemical genetic growth profiling, strain panel (AID 1159580);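 also: tested at 20 µM; growth read once vehicle control cultures reached saturation at 30 °C; 1 = growth at the plate median or of vehicle wells; lower values mean less growth of the strain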; settings: S. cerevisiae deletion strains, growth OD, locus YLR384C, strain iki3, hits give low values
About 2,000 (36%) of roughly 5,500 compounds were called active. About 18% were inconclusive and are not listed. This is one part of the list.
No unit in the answer, please; the number alone is enough.

Previously resolved entries follow.
NS(=O)(=O)c1cc2c(cc1C(F)(F)F)NCNS2(=O)=O    0.988
CC1=NCCc2c1[nH]c1cc(O)ccc21    0.994
COc1ccc(-c2cc(=O)c3c(OC(C)=O)cc(OC(C)=O)cc3o2)cc1    0.981
O=c1cc(-c2ccc(O)cc2)oc2ccc(O)cc12    0.969

Can you share its normalized growth? I mean this molecule: O=c1cc(-c2ccc(O)c(O)c2)oc2ccccc12
0.981

Can you share its normalized growth? I mean this molecule: CCC(CCC(C)[C@H]1CCC2C3CC=C4C[C@@H](O)CC[C@]4(C)C3CC[C@@]21C)C(C)C (stereo not given in full)
1.02

Can you share its normalized growth? I mean this molecule: CC(=O)Oc1ccc(-c2cc(=O)c3c(OC(C)=O)cc(OC(C)=O)cc3o2)cc1
0.966

====

assay: chemical genetic growth profiling, strain panel (AID 1159580);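 also: tested at 20 µM; growth read once vehicle control cultures reached saturation at 30 °C; 1 = growth at the plate median or of vehicle wells; lower values mean less growth of the strain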; settings: S. cerevisiae deletion strains, growth OD, locus YFL029C, strain CAK1
In all, about 5,500 compounds went through this assay and about 2,000 (36%) were called active. Another 18% or so got no clear call; they are omitted. Cut-off read from the data, not from the text of the source: active = normalized growth mostly below about 0.91 (no sharp cut-off); inconclusive = no clear call, values can overlap the other calls; inactive = mostly above about 0.92. The list shows a part of the results.
Pick one and only one: active, inactive

Examples from the recorded data:
CCn1nc(C)cc1-c1nnc(Sc2ncc([N+](=O)[O-])s2)n1C    inactive
CCC(C)Cn1c(Sc2ncc([N+](=O)[O-])s2)n[nH]c1=O (stereo not drawn)    active

Could you now consider this next molecule?
Just curious, what result did CC(C)c1ccc(-c2cc(=O)c3ccccc3o2)cc1 get here?
inactive

====

assay: chemical genetic growth profiling, strain panel (AID 1159580);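 also: tested at 20 µM; growth read once vehicle control cultures reached saturation at 30 °C; 1 = growth at the plate median or of vehicle wells; lower values mean less growth of the strain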; conditions: S. cerevisiae deletion strains, growth OD, locus YLR113W, strain HOG1
The campaign covered roughly 5,500 compounds. About 2,000 (36%) were called active. Roughly 18% stayed inconclusive and do not appear here. Cut-off read from the data, not from the text of the source: active = normalized growth mostly below about 0.91 (no sharp cut-off); inconclusive = no clear call, values can overlap the other calls; inactive = mostly above about 0.92. Some of the results follow.
Pick one and only one: true for active, false for inactive

Examples from the recorded data:
COc1cc2cc[n+]3cc4c(OC)c(OC)ccc4cc3c2cc1OC    false
Cn1c(=O)c2[nH]c(C3CCCC3)nc2n(C)c1=O    false
[N-]=[N+]=CC(=O)OCC(N)C(=O)O (configuration not stated)    false
CN(C)C(=O)Oc1cc(OC(=O)N(C)C)cc(C(O)CNC(C)(C)C)c1 (configuration not stated)    false
COc1cc([C@@H]2c3cc4c(cc3[C@H](OC(C)=O)[C@H]3COC(=O)[C@H]23)OCO4)cc(OC)c1OC    false
Cc1ncc(C[n+]2csc(CCO)c2C)c(=O)[nH]1    false
COc1ccc2cc3[n+](cc2c1OC)CCc1cc2c(cc1-3)OCO2    true
CS(=O)(=O)c1ccc([C@@H](O)[C@H](CF)NC(=O)C(Cl)Cl)cc1    false

Just curious, what result did CN1CCc2c(c3ccccc3n2Cc2ccccc2)C1 get here?
false

====

test: chemical genetic growth profiling, strain panel (AID 1159580);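 also: tested at 20 µM; growth read once vehicle control cultures reached saturation at 30 °C; 1 = growth at the plate median or of vehicle wells; lower values mean less growth of the strain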; conditions: S. cerevisiae deletion strains, growth OD, strain wtn01, hits give low values
Out of some 5,500 compounds screened, about 2,000 (36%) were called active. Not shown: some 18% with an inconclusive outcome. This is one part of the list.
Each entry belongs to exactly one class, chosen by where its normalized growth falls: low-valued = under 0.9, mid-valued = from 0.9 up to 1, high-valued = 1 and over

Examples from the recorded data:
COc1ccc(-c2cc(=O)c3ccccc3o2)cc1    low-valued
COc1ccc(-c2coc3cc(O)cc(O)c3c2=O)cc1    low-valued
COc1cc(O)c2c(=O)c(-c3ccc(O)cc3)coc2c1    low-valued
COc1ccc(-c2coc3cc(OC)cc(O)c3c2=O)cc1    mid-valued
CCCCCCCCCc1ccc(O)cc1    low-valued
COc1cc([C@@H]2c3cc4c(cc3C(O[C@@H]3O[C@@H]5CO[C@@H](c6cccs6)OC5[C@H](O)[C@H]3O)C3COC(=O)[C@@H]32)OCO4)cc(OC)c1O (stereo partly specified)    high-valued
COc1ccc(-c2cc(=O)c3ccccc3o2)cc1OC    mid-valued
CC(C)(Oc1ccc(Cl)cc1)C(=O)O    mid-valued
Nc1ccc(C(=O)Oc2ccccc2)c(O)c1    low-valued
CCCCCCc1ccc(O)cc1O    low-valued

Which class is correct for the following molecule? COC(=O)C1=C(C)NC(C)=C(C(=O)OC)C1c1ccccc1[N+](=O)[O-]
low-valued

Which class is correct for the following molecule? O=c1c2ccccc2[se]n1-c1ccccc1
low-valued

Which class is correct for the following molecule? O=C1c2c(O)ccc(O)c2C(=O)c2c(NCCNCCO)ccc(NCCNCCO)c21
mid-valued
